Attribution: PubChem BioAssay (NCI)

Reported values of TGI for individual entries
- Tested on: MCF7 breast
- assay.overview: NCI tumour cell line growth inhibition, 48 h

// known answers, use as guide
{"compound": "O=C1Nc2ccccc2/C1=C/C(=O)c1coc2c1C(=O)c1ccccc1C2=O", "result.type": "TGI", "reported.result": "> 100 µM"}
{"compound": "O=C(Nc1ccc(Cl)cc1)NS(=O)(=O)c1coc2cc(F)ccc2c1=O", "result.type": "TGI", "reported.result": "> 100 µM"}
{"compound": "Cc1csc2[n+]1C(=O)/C(=C\\c1ccc([N+](=O)[O-])cc1)S2", "result.type": "TGI", "reported.result": "> 100 µM"}
{"compound": "COC(=O)/C=C(/C)n1nc2ccccc2n1", "result.type": "TGI", "reported.result": "> 100 µM"}
{"compound": "CCOC(=O)/C(C#N)=C\\c1ccc(N(CCC(=O)O)CCC(=O)O)c(I)c1", "result.type": "TGI", "reported.result": "> 10 µM"}
{"compound": "O=C1c2cc(Cl)ccc2-n2cnnc2C2CSCN12 (stereo not given)", "result.type": "TGI", "reported.result": "> 100 µM"}
{"compound": "Cc1cc(=O)[nH]c(-n2[nH]c(C)c(CCO)c2=O)n1", "result.type": "TGI", "reported.result": "> 100 µM"}
{"compound": "O=C1/C(=C/c2ccccc2O)N=C(c2ccccc2)N1C1Nc2cc3c(cc2S1)NC(N1C(=O)/C(=C/c2ccccc2O)N=C1c1ccccc1)S3 (stereo not given)", "result.type": "TGI", "reported.result": "> 100 µM"}

[Q] Requested read-out: TGI. Entry: C=C(C)C1=CCC[C@]2(C1)N=C(OC)[C@@H](C(C)C)N=C2OC
[A] > 100 µM

[Q] Try CCc1n[nH]c(=O)n1/N=C/c1c(O)ccc2ccccc12 next.
[A] > 100 µM

[Q] Input CCOC(CN(C)C(=O)Nc1cccc2ccccc12)OCC
[A] > 10 µM

[Q] // next record C=C(C)C(=O)O[C@H]1CC(=C)[C@@H]2C[C@H](O)[C@](O)(CCl)[C@@H]2[C@H]2OC(=O)C(=C)[C@@H]21
[A] 4.04 µM

[Q] Try C(#Cc1ccccc1C#Cc1cccs1)c1cccs1 next.
[A] > 100 µM

[Q] Now consider C=CCNC(=O)NC(=O)CSC1=NNC2(C(=O)N1)c1ccccc1-c1ccccc12 and answer again.
[A] > 10 µM

[Q] How about this compound: COc1ccc(-c2cc(=O)[nH]c3c(OC)c4ccccc4c(OC)c23)cc1
[A] > 100 µM

[Q] Same for Cc1cc2c(cc1-c1cc3c(cc1C)C(C(C)C)=C(O)C(=O)/C3=C\Nc1c3ccccc3nc3ccccc13)/C(=C/Nc1c3ccccc3nc3ccccc13)C(=O)C(O)=C2C(C)C
[A] 11 µM
